testSummary: recombinant UMI read abundance after kanamycin selection (control-corrected) (log10(CPM+1)); higher = more efficient recombination; extreme values may be limits of the assay; sequences stand for … in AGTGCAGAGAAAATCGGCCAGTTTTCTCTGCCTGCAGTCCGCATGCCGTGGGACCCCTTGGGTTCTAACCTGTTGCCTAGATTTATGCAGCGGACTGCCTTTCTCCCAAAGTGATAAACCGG…AGGTTGGTTTCACT; site = the 11-nt donor;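 note: IS621 bridge recombinase in Escherichia coli cells against a fixed T5 target plasmid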
# binarize recombinant UMI read abundance (log10): threshold 0.02 inclusive, high side TRUE, low side FALSE

querySequence: AGGAAAACATGGACCGGTTTTCCCGGTAATCCGTATTTGTA (site AGGAAGACTTG)
discreteLabel: FALSE

querySequence: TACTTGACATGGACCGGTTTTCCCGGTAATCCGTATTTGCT (site TACTTGACTAA)
discreteLabel: FALSE

querySequence: AGCCATTCATGGACCGGTTTTCCCGGTAATCCGTATTTGAC (site AGCCATTCTGT)
discreteLabel: TRUE

querySequence: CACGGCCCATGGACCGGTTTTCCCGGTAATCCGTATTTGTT (site CACGGACCTAA)
discreteLabel: FALSE

querySequence: AATCTCACATGGACCGGTTTTCCCGGTAATCCGTATTTGCT (site AATCTCACTAG)
discreteLabel: TRUE

querySequence: CGTGGACCATGGACCGGTTTTCCCGGTAATCCGTATTTGGG (site CGGGGACCTCC)
discreteLabel: TRUE

querySequence: GAGTAGGCATGGACCGGTTTTCCCGGTAATCCGTATTTGGG (site GAGTAGGCTCC)
discreteLabel: TRUE

querySequence: CCCGATCCATGGACCGGTTTTCCCGGTAATCCGTATTTGCA (site CCCGATCCTTG)
discreteLabel: FALSE

API: above_or_equal(metric=recombinant UMI read abundance (log10), cutoff=0.02) for item CGAGTACCATGGACCGGTTTTCCCGGTAATCCGTATTTGGG (site CGAGGACCTCC)
FALSE

Dear colleague, could you confirm whether CTGTGCGCATGGACCGGTTTTCCCGGTAATCCGTATTTGAC (site TCCCTGTCTTC) has recombinant UMI read abundance (log10) at or above 0.02?
FALSE

Is reported recombinant UMI read abundance (log10) greater than or equal to 0.02 here: ATCCAAGCATGGACCGGTTTTCCCGGTAATCCGTATTTGAC (site ATCCAAGCTCT)
FALSE

Can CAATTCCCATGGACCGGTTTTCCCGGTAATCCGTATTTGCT (site GAATTCCCTAG) be said to have recombinant UMI read abundance (log10) at or above 0.02?
FALSE

Is recombinant UMI read abundance (log10) at least 0.02? Consider ACATTGACATGGACCGGTTTTCCCGGTAATCCGTATTTGAA (site ACATTGACTTT)
TRUE

Quick check, recombinant UMI read abundance (log10) >= 0.02? ACAGTTTCATGGACCGGTTTTCCCGGTAATCCGTATTTGTA (site ACAGTATCTTG)
TRUE
